From: paper PMC9416004

Examples of compounds with documented log10 EC50 follow.
Test system: HCoV-229E
method-description: Cytopathic effect (CPE) reduction assay with HCoV-229E in HEL cells
Assay type: cell-based, human coronavirus 229E
condition-notes: Human coronavirus 229E, 120 h; HCoV-229E-infected HEL cells; protection against virus-induced CPE by MTS cell viability assay; five days at 35 °C; read-out: Antiviral EC50 MTS
Remember, log10 of EC50, in µM.

Solved cases below.
compound | observed
CCC(C)N(C(=O)[C@H](CC(=O)OC)NC(=O)OCc1ccccc1)C1(C(=O)NCc2ccccc2)CCN(Cc2ccccc2)CC1 (stereo partly shown) | 0.79
COC(=O)C[C@H](NC(=O)OC(C)(C)C)C(=O)N(Cc1ccccc1)C1(C(=O)NC(C)(C)C)CCN(Cc2ccccc2)CC1 | 1.40
CC(C)(C)OC(=O)NCC(=O)N(Cc1ccccc1)C1(C(=O)NCc2ccccc2)CCN(Cc2ccccc2)CC1 | 1.18
COC(=O)C[C@H](NC(=O)OCc1ccccc1)C(=O)N(Cc1ccccc1)C1(C(=O)NCc2ccccc2)CCN(CCc2ccc(F)cc2)CC1 | 0.78

Now consider the entry below.
Query string: Reported log10 EC50, compound "COC(=O)C[C@H](NC(=O)OC(C)(C)C)C(=O)N(Cc1ccc(F)cc1)C1(C(=O)NCc2ccccc2)CCNCC1" : ____
Result string: 1.89

----------
System: HCoV-229E
method-description: Cytopathic effect (CPE) reduction assay with HCoV-229E in HEL cells
Type: cell-based, human coronavirus 229E
condition-notes: Human coronavirus 229E, 120 h; HCoV-229E-infected HEL cells; protection against virus-induced CPE by microscopic scoring; five days at 35 °C; read-out: Antiviral EC50 Microscopy
readout-label: pEC50
When answering, recall that pEC50 equals minus log10 of the concentration in mol/L, and write that number alone.

Below, 5 compounds whose answers are already recorded.
compound | measurement-target | pEC50
COC(=O)C[C@H](NC(=O)OC(C)(C)C)C(=O)N(Cc1ccc(F)cc1)C1(C(=O)NCS(=O)(=O)c2ccc(C)cc2)CCN(Cc2ccccc2)CC1 [Compound 14] | HCoV-229E | 4.24
CC(C)(C)OC(=O)N[C@@H](Cc1ccc(F)cc1)C(=O)N(Cc1ccccc1)C1(C(=O)NCc2ccccc2)CCN(Cc2ccccc2)CC1 [Compound 49] | HCoV-229E | 5.00
COC(=O)C[C@H](NC(=O)OC(C)(C)C)C(=O)N(Cc1ccccc1F)C1(C(=O)NCc2ccccc2)CCN(Cc2ccccc2)CC1 [Compound 26] | HCoV-229E | 4.92
CC(C)(C)OC(=O)N[C@@H](Cc1ccc(O)cc1)C(=O)N(Cc1ccccc1)C1(C(=O)NCc2ccccc2)CCN(Cc2ccccc2)CC1 [Compound 48] | HCoV-229E | 4.96
CC(C)(C)OC(=O)NC(Cc1ccc(Cl)cc1)C(=O)N(Cc1ccccc1)C1(C(=O)NCc2ccccc2)CCN(Cc2ccccc2)CC1 (stereo not drawn) [Compound 50] | HCoV-229E | 5.00

Consider now this further compound.
Query string: Endpoint output: pEC50 of COC(=O)C[C@H](NC(=O)OCc1ccccc1)C(=O)N(Cc1ccccc1)C1(C(=O)NCc2ccccc2)CCN(CCc2ccc([N+](=O)[O-])cc2)CC1 [Compound 55] . Value?
Result string: 5.00

----------
System: HCoV-229E
method-description: Cytopathic effect (CPE) reduction assay with HCoV-229E in HEL cells
Type: cell-based, human coronavirus 229E
condition-notes: Human coronavirus 229E, 120 h; HCoV-229E-infected HEL cells; protection against virus-induced CPE by MTS cell viability assay; five days at 35 °C; read-out: Antiviral EC50 MTS
readout-label: pEC50
pEC50 here is simply -log10 of the concentration when that concentration is written in mol/L.

Please review the following examples before continuing.
molecule-smiles | pEC50
COC(=O)C[C@H](NC(=O)OCc1ccccc1)C(=O)N(CCNc1ccccc1)C1(C(=O)NCc2ccccc2)CCN(Cc2ccccc2)CC1 | 5.15
COC(=O)C[C@H](NC(=O)OC(C)(C)C)C(=O)N(Cc1ccc(C)cc1)C1(C(=O)NCc2ccccc2)CCN(Cc2ccccc2)CC1 | 5.37
CC(C)(C)OC(=O)N[C@@H](Cc1c[nH]c2ccccc12)C(=O)N(Cc1ccccc1)C1(C(=O)NCc2ccccc2)CCN(Cc2ccccc2)CC1 | 4.31
COC(=O)C[C@H](NC(=O)OC(C)(C)C)C(=O)N(Cc1ccccc1)C1(C(=O)NC2CCCCC2)CCN(Cc2ccccc2)CC1 | 5.00
CC(C)(C)OC(=O)N[C@@H](CC(N)=O)C(=O)N(Cc1ccc(F)cc1)C1(C(=O)NCc2ccccc2)CCN(Cc2ccccc2)CC1 | 4.19

We next turn to a different compound, shown below.
Query string: Look up pEC50 with HCoV-229E for this compound: "COC(=O)C[C@H](NC(=O)OC(C)(C)C)C(=O)N(Cc1ccc(F)cc1)C1(C(=O)NCc2ccccc2)CCN(CCc2ccccc2)CC1"
Result string: 5.36
